Would you kindly list % Temperature decrease for each of these molecules?
Tested on: brewers' yeast-induced hyperthermia
procedure text: antipyretic activity, brewers' yeast-induced hyperthermia
Format: in vivo, albino male Wistar rats
stated conditions: 75 mg/Kg i.p., 1 h
One number for each entry, in %.

Provide % Temperature decrease values for the following items, in order.
1. Cc1ccc(C(=O)c2ccc(CC(=O)NCC(=O)O)n2C)cc1
2. Cc1ccc(C(=O)c2ccc(CC(=O)NNCC(=O)N3CCN(C)CC3)n2C)cc1
3. Cc1ccc(C(=O)c2ccc(CC(=O)N3CCN(C)CC3)n2C)cc1
4. Cc1ccc(C(=O)c2ccc(CC(=O)N3CCOCC3)n2C)cc1
5. COc1ccccc1OC(=O)CNC(=O)Cc1ccc(C(=O)c2ccc(C)cc2)n1C

1. 19.0
2. 18.0
3. 23.4
4. 19.0
5. 22.1

Note to self: % Temperature decrease recorded for CCOC(=O)c1ccc(NC(=O)Cc2ccc(C(=O)c3ccc(C)cc3)n2C)cc1 was 18.0

---

Would you kindly list gastric damage index for each of these compounds?
System: gastric lesions
Format: in vivo, male Wistar rats
stated conditions: 100 mg/Kg orally, 4 consecutive days; I=mean no. of lesions+mean of severity+% incidence/10

Study these solved cases before continuing.
compound: COc1ccccc1OC(=O)CNC(=O)Cc1ccc(C(=O)c2ccc(C)cc2)n1C [Compound 1-d]
gastric damage index: 12.5

compound: CCOC(=O)c1ccc(NC(=O)Cc2ccc(C(=O)c3ccc(C)cc3)n2C)cc1 [Compound 1-h]
gastric damage index: 10.5

compound: Cc1ccc(C(=O)c2ccc(CC(=O)NCC(=O)O)n2C)cc1 [Compound 1-c]
gastric damage index: 12

Next compound, gastric damage index to be filled in.
Note to self: gastric damage index recorded for Cc1ccc(C(=O)c2ccc(CC(=O)N3CCOCC3)n2C)cc1 [Compound 3-a] was 11.5

---

System: brewers' yeast-induced hyperthermia
procedure text: antipyretic activity, brewers' yeast-induced hyperthermia
Format: in vivo, albino male Wistar rats
stated conditions: 50 mg/Kg per os, 3 h
Would you kindly list % Temperature decrease for each of these compounds?
One number for each entry, in %.

Study these solved cases before continuing.
compound smiles: Cc1ccc(C(=O)c2ccc(CC(=O)NNCC(=O)N3CCN(C)CC3)n2C)cc1
endpoint unit: %
% Temperature decrease: 35.2

compound smiles: Cc1ccc(C(=O)c2ccc(CC(=O)N3CCOCC3)n2C)cc1
endpoint unit: %
% Temperature decrease: 32.1

compound smiles: CCOC(=O)c1ccc(NC(=O)Cc2ccc(C(=O)c3ccc(C)cc3)n2C)cc1
endpoint unit: %
% Temperature decrease: 31.1

compound smiles: Cc1ccc(C(=O)c2ccc(CC(=O)N3CCN(C)CC3)n2C)cc1
endpoint unit: %
% Temperature decrease: 36.2

compound smiles: Cc1ccc(C(=O)c2ccc(CC(=O)NCC(=O)O)n2C)cc1
endpoint unit: %
% Temperature decrease: 32.0

Note to self: % Temperature decrease recorded for COc1ccccc1OC(=O)CNC(=O)Cc1ccc(C(=O)c2ccc(C)cc2)n1C was 31.6

---

Would you kindly list mean severity for each of these compounds?
Tested on: gastric lesions
Assay type: in vivo, male Wistar rats
stated conditions: 100 mg/Kg orally, 4 consecutive days; scale 0 (no lesion) to 5 (perforations)
One number for each entry.

Study these solved cases before continuing.
compound smiles: Cc1ccc(C(=O)c2ccc(CC(=O)N3CCOCC3)n2C)cc1
mean severity: 2

compound smiles: COc1ccccc1OC(=O)CNC(=O)Cc1ccc(C(=O)c2ccc(C)cc2)n1C
mean severity: 1.5

compound smiles: CCOC(=O)c1ccc(NC(=O)Cc2ccc(C(=O)c3ccc(C)cc3)n2C)cc1
mean severity: 1

compound smiles: Cc1ccc(C(=O)c2ccc(CC(=O)NCC(=O)O)n2C)cc1
mean severity: 2

Note to self: mean severity recorded for Cc1ccc(C(=O)c2ccc(CC(=O)NNCC(=O)N3CCN(C)CC3)n2C)cc1 was 1

---

Would you kindly list mean severity for each of these compounds?
System: gastric lesions
Assay type: in vivo, male Wistar rats
stated conditions: 200 mg/Kg orally, 4 consecutive days; scale 0 (no lesion) to 5 (perforations)

Provide mean severity values for the following items, in order.
1. COc1ccccc1OC(=O)CNC(=O)Cc1ccc(C(=O)c2ccc(C)cc2)n1C
2. Cc1ccc(C(=O)c2ccc(CC(=O)N3CCOCC3)n2C)cc1
3. CCOC(=O)c1ccc(NC(=O)Cc2ccc(C(=O)c3ccc(C)cc3)n2C)cc1
4. Cc1ccc(C(=O)c2ccc(CC(=O)NCC(=O)O)n2C)cc1

[2, 2, 1.5, 2]

---

System: brewers' yeast-induced hyperthermia
procedure text: antipyretic activity, brewers' yeast-induced hyperthermia
Type: in vivo, albino male Wistar rats
stated conditions: 50 mg/Kg i.p., 1 h
Would you kindly list % Temperature decrease for each of these molecules?
Answers are plain numbers, in %.

compound smiles: Cc1ccc(C(=O)c2ccc(CC(=O)NCC(=O)O)n2C)cc1
parameter: % Temperature decrease
numeric readout: 20.0

compound smiles: CCOC(=O)c1ccc(NC(=O)Cc2ccc(C(=O)c3ccc(C)cc3)n2C)cc1
parameter: % Temperature decrease
numeric readout: 12.0

compound smiles: COc1ccccc1OC(=O)CNC(=O)Cc1ccc(C(=O)c2ccc(C)cc2)n1C
parameter: % Temperature decrease
numeric readout: 16.0

compound smiles: Cc1ccc(C(=O)c2ccc(CC(=O)NNCC(=O)N3CCN(C)CC3)n2C)cc1
parameter: % Temperature decrease
numeric readout: 13.0

Provide % Temperature decrease values for the following items, in order.
1. Cc1ccc(C(=O)c2ccc(CC(=O)N3CCOCC3)n2C)cc1
2. Cc1ccc(C(=O)c2ccc(CC(=O)N3CCN(C)CC3)n2C)cc1

16.0
12.9

---

Would you kindly list oedema % inhibition for each of these compounds?
Test system: carrageenin-induced oedema
procedure text: carrageenin-induced oedema test (anti-inflammatory activity)
Type: in vivo, albino male Wistar rats
stated conditions: 100 mg/Kg, Table IV (route not given), 24 h

compound: Cc1ccc(C(=O)c2ccc(CC(=O)N3CCOCC3)n2C)cc1 [Compound 3-a]
result: 13.1%

Provide oedema % inhibition values for the following items, in order.
1. Cc1ccc(C(=O)c2ccc(CC(=O)NCC(=O)O)n2C)cc1 [Compound 1-c]
2. CCOC(=O)c1ccc(NC(=O)Cc2ccc(C(=O)c3ccc(C)cc3)n2C)cc1 [Compound 1-h]
3. Cc1ccc(C(=O)c2ccc(CC(=O)NNCC(=O)N3CCN(C)CC3)n2C)cc1 [Compound 1-o]
4. Cc1ccc(C(=O)c2ccc(CC(=O)N3CCN(C)CC3)n2C)cc1 [Compound 3-b]
5. COc1ccccc1OC(=O)CNC(=O)Cc1ccc(C(=O)c2ccc(C)cc2)n1C [Compound 1-d]

1. 30.4%
2. 19.0%
3. 24.1%
4. 25.6%
5. 42.4%

Entry Cc1ccc(C(=O)c2ccc(CC(=O)O)n2C)cc1 [Tolmetin Na.2H2 O, reference compound] ; assay system carrageenin-induced oedema; oedema % inhibition recorded at 8.7%

---

Tested on: carrageenin-induced oedema
procedure text: carrageenin-induced oedema test (anti-inflammatory activity)
Assay type: in vivo, albino male Wistar rats
stated conditions: 25 mg/Kg per os, 6 h
Threshold check on oedema % inhibition: at or above 40% gives true (1), strictly below gives false (0).

Worked set:
compound smiles: Cc1ccc(C(=O)c2ccc(CC(=O)N3CCOCC3)n2C)cc1
class name: false (0)
//
compound smiles: Cc1ccc(C(=O)c2ccc(CC(=O)NCC(=O)O)n2C)cc1
class name: false (0)
//
compound smiles: CCOC(=O)c1ccc(NC(=O)Cc2ccc(C(=O)c3ccc(C)cc3)n2C)cc1
class name: false (0)

Determine whether measured oedema % inhibition meets or exceeds 40% for Cc1ccc(C(=O)c2ccc(CC(=O)NNCC(=O)N3CCN(C)CC3)n2C)cc1
true (1)

Determine whether measured oedema % inhibition meets or exceeds 40% for Cc1ccc(C(=O)c2ccc(CC(=O)N3CCN(C)CC3)n2C)cc1
false (0)

---

procedure text: in vivo
stated conditions: rat, ip
parameter: LD50 (mg/kg)
Numbers only, in mg/kg.

Study these solved cases before continuing.
compound smiles: Cc1ccc(C(=O)c2ccc(CC(=O)NCC(=O)O)n2C)cc1
LD50 [mg/kg]: 780
--
compound smiles: COc1ccccc1OC(=O)CNC(=O)Cc1ccc(C(=O)c2ccc(C)cc2)n1C
LD50 [mg/kg]: 1100
--
compound smiles: Cc1ccc(C(=O)c2ccc(CC(=O)N3CCN(C)CC3)n2C)cc1
LD50 [mg/kg]: 590

Next compound, LD50 to be filled in.
Note to self: LD50 recorded for Cc1ccc(C(=O)c2ccc(CC(=O)N3CCOCC3)n2C)cc1 was 1370

---

Would you kindly list mean no. of lesions for each of these compounds?
Test system: gastric lesions
Format: in vivo, male Wistar rats
stated conditions: 50 mg/Kg orally, 4 consecutive days
One number for each entry.

Provide mean no. of lesions values for the following items, in order.
1. Cc1ccc(C(=O)c2ccc(CC(=O)NNCC(=O)N3CCN(C)CC3)n2C)cc1 [Compound 1-o]
2. Cc1ccc(C(=O)c2ccc(CC(=O)N3CCN(C)CC3)n2C)cc1 [Compound 3-b]
3. CCOC(=O)c1ccc(NC(=O)Cc2ccc(C(=O)c3ccc(C)cc3)n2C)cc1 [Compound 1-h]

[1, 1, 1]

Provide mean no. of lesions values for the following items, in order.
1. Cc1ccc(C(=O)c2ccc(CC(=O)NCC(=O)O)n2C)cc1 [Compound 1-c]
2. Cc1ccc(C(=O)c2ccc(CC(=O)N3CCOCC3)n2C)cc1 [Compound 3-a]
3. COc1ccccc1OC(=O)CNC(=O)Cc1ccc(C(=O)c2ccc(C)cc2)n1C [Compound 1-d]

1
1
1.5
